Task for the reader: assign each of the following molecules its reported IC50.
- assay.target: human P2X3 receptor (Homo sapiens (Human), UniProt P56373)
- Sequence (P56373 whole entry): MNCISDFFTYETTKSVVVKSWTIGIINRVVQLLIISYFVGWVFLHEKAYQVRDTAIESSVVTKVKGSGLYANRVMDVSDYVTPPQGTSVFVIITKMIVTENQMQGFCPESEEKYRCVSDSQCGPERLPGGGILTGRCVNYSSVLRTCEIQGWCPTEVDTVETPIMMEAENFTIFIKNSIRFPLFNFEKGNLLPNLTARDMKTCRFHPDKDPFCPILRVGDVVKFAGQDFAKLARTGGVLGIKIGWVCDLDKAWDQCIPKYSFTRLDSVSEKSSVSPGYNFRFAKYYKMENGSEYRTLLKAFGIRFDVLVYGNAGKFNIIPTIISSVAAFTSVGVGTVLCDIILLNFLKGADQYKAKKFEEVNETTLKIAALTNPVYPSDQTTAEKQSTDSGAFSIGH
- assay.text: P2X3 receptor inhibition, ATP-evoked Fluo-3 fluorescence (FDSS 3000)
- condition.info: C6BU-1 cell transfected with human P2X3 receptor gene
One number for each entry, in nM.

Give IC50 for each of the items listed below.
1. COC(=O)C[C@H](C)n1c(=O)[nH]/c(=N\c2ccc(OC(C)C)c(C)c2)n(Cc2ccc(Cl)cc2)c1=O [I-524]
2. CC(C)Oc1ccc(/N=c2\[nH]c(=O)n(CCC(C)(C)C(=O)OCc3ccccc3)c(=O)n2Cc2ccc(Cl)cc2)cc1F [I-406]
3. CCCn1ccc2cc(/N=c3\[nH]c(=O)n(CC(C)(C)C(=O)OC)c(=O)n3Cc3ccc(Cl)cc3)ccc21 [I-507]
4. CC(C)Oc1ccc(Nc2nc(=O)n(CCO)c(=O)n2Cc2ccc(F)cc2)cc1F [I-333]

[60, 30, 301, 192]
